test system: human wild-type p21 promoter; assay: p21 promoter-inducing activity (luciferase) in MFLL-9 cells; format: cell-based; conditions: Table 4, positive control
reportedMetric: EC50
Note: a bare number is incomplete; add the unit.

get_value(item= CC(/C=C/C(=O)NO)=C\[C@@H](C)C(=O)c1ccc(N(C)C)cc1 [TSA, Tricostatin A, reference compound] , readout=EC50) returns 445 nM

###

assay: Cytotoxicity test (free-LDH ratio), TIG-3; assay type: cell-based; details: human, TIG-3 human normal lung cells, 48 hours; free-LDH ratio 50%; without DTT; read-out: LD50 (nM) TIG-3
// CC50 at 48 h lookup, one value per entry
The answer is to be given in nM; state only the numeric part.

Looking up CC[C@H](C)[C@@H]1NC(=O)[C@@H](Cc2ccc(OC)cc2)NC(=O)[C@H](CCCCCSSc2ccncc2)NC(=O)[C@H]2CCCN2C1=O , I found its CC50 at 48 h recorded as 13300

Next:
Query CC[C@H](C)[C@@H]1NC(=O)[C@@H](Cc2ccc(OC)cc2)NC(=O)[C@H](CCCCCSSC)NC(=O)[C@H]2CCCN2C1=O yields CC50 at 48 h of 7900
